- experimentalSystem: α2 subunit of the human GABAA receptor in association with the beta2 (short) and gamma2 (long) subunits (Homo sapiens, UniProt P18507+P47869+P47870)
- Sequence (P47869 29-451): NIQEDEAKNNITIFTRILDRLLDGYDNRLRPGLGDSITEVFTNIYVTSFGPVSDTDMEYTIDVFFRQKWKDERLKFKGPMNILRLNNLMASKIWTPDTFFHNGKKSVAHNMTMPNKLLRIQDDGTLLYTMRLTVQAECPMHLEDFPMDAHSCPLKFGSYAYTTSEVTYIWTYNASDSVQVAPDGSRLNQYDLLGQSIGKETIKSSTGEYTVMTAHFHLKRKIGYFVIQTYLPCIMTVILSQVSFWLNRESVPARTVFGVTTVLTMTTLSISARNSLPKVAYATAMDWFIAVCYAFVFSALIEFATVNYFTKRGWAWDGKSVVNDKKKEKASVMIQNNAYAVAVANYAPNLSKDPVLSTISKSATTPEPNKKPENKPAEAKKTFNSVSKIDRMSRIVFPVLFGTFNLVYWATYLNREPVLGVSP
- Sequence (P47870 26-474 isoform P47870-1 partner limits assumed): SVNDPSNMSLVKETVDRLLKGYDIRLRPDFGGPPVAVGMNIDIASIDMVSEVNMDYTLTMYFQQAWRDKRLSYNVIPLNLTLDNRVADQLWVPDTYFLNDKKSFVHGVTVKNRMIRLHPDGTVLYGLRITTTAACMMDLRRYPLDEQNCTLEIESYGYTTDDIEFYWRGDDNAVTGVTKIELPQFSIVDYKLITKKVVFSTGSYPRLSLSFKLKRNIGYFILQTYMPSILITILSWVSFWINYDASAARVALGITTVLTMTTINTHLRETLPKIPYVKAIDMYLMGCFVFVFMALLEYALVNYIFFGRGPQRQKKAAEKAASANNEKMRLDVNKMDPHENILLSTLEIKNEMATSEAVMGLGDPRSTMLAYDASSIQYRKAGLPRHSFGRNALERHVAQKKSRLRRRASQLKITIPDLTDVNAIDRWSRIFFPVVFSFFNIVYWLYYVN
- Sequence (P18507 40-475 partner): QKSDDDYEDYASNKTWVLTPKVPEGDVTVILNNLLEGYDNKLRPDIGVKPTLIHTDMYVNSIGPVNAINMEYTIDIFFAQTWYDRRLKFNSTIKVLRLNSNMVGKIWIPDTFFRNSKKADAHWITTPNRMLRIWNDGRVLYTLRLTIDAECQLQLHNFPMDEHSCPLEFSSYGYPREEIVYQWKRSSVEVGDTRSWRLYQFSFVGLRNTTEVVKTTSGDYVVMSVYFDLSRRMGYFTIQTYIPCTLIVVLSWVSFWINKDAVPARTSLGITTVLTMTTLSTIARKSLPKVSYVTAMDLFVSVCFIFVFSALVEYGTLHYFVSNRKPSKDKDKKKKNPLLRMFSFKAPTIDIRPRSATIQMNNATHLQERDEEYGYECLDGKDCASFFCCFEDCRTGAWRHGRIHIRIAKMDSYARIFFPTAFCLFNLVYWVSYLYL
- experimentalDetails: GABA-induced membrane potential response (FMP dye, FlexStation3) in HEK-293 cells expressing GABAA α2
Reported EC50 values for a set of compounds
propertyMeasured: EC50

[[record]]
compound = "CC1=NN=C(c2sc3cc(Cl)ccc3c2C)c2cc3c(cc2C1)NC(=O)C(C)O3 (racemic)"
result = "1200 nM"

[[record]]
compound = "CCc1ccc2oc(C3=NN=C(C)Cc4cc5c(cc43)OC(C)C(=O)N5)c(CC)c2c1 (stereo not shown)"
result = "1100 nM"

[[record]]
compound = "CC1=NN=C(c2sc3cc(Cl)c(F)cc3c2C)c2cc3c(cc2C1)NC(=O)C(C)O3 (stereo not shown)"
result = "1000 nM"

[[record]]
compound = "CC1=NN=C(c2oc3ccc(O)cc3c2C)c2cc3c(cc2C1)NC(=O)C(C)O3 (stereo not shown)"
result = "1000 nM"

